biological target: Gastrin/cholecystokinin type B receptor (Rattus norvegicus) (UniProt P30553); test: Activity in vivo gastrin-induced acid secretion in rats; format: functional, organism-based
Sequence (P30553 whole entry): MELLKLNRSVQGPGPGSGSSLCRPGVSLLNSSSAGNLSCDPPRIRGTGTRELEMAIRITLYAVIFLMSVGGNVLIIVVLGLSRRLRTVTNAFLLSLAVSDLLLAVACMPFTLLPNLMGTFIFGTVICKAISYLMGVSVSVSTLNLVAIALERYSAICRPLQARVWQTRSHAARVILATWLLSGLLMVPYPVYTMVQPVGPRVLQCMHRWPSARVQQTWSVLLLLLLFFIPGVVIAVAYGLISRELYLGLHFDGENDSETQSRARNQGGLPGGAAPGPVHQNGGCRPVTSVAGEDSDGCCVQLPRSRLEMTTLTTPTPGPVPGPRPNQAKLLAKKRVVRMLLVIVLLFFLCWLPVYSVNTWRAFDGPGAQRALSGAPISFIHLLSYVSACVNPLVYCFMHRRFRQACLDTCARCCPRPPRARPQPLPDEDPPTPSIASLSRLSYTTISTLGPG
Where a SMILES comes first, the peptide text is derived from it. [ ]: non-standard residue; d: D form. The star is where a group is joined. β3hF = N[C@H](CC(=O)O)Cc1ccccc1; Boc = CC(C)(C)OC(=O)*
MEASUREMENT TYPE: ED50 (mg/kg)

Solved cases (5 shown):
[
  {
    "COMPOUND": "CC(C)C[C@H](NC(=O)[C@H](Cc1c[nH]c2ccccc12)NC(=O)OC(C)(C)C)C(=O)N[C@@H](CC(=O)O)C(=O)N[C@H](CC(N)=O)Cc1ccccc1 (Boc-WLD[β3hF]-NH2)",
    "ED50 [mg/kg]": 7
  },
  {
    "COMPOUND": "CC(C)C[C@H](NC(=O)[C@H](Cc1c[nH]c2ccccc12)NC(=O)OC(C)(C)C)C(=O)N[C@H](CC(=O)O)CC(=O)N[C@@H](Cc1ccccc1)C(N)=O",
    "ED50 [mg/kg]": 0.1
  },
  {
    "COMPOUND": "CC(C)C[C@H](CC(=O)N[C@@H](CC(=O)O)C(=O)N[C@@H](Cc1ccccc1)C(N)=O)NC(=O)[C@@H](Cc1c[nH]c2ccccc12)NC(=O)OC(C)(C)C",
    "ED50 [mg/kg]": 7.5
  },
  {
    "COMPOUND": "CC(C)C[C@@H](CC(=O)NC(CC(=O)O)C(=O)NCCc1ccccc1)NC(=O)[C@@H](Cc1c[nH]c2ccccc12)NC(=O)OC(C)(C)C (some centres undefined)",
    "ED50 [mg/kg]": 0.5
  },
  {
    "COMPOUND": "CC(C)C[C@H](NC(=O)[C@H](Cc1c[nH]c2ccccc12)NC(=O)OC(C)(C)C)C(=O)N[C@H](CC(=O)O)CC(=O)N[C@H](Cc1ccccc1)C(N)=O",
    "ED50 [mg/kg]": 0.1
  }
]

(P) CC(C)CC(CC(=O)N[C@H](CC(=O)O)C(=O)NCCc1ccccc1)NC(=O)C(Cc1c[nH]c2ccccc12)NC(=O)OC(C)(C)C (some centres undefined)
(Q) CC(C)CC(CC(=O)NC(CC(=O)O)C(=O)NCc1ccccc1)NC(=O)C(Cc1c[nH]c2ccccc12)NC(=O)OC(C)(C)C (centres undefined)
(R) CC(C)CC(NC(=O)[C@@H](Cc1c[nH]c2ccccc12)NC(=O)OC(C)(C)C)C(=O)N[C@H](CC(=O)O)CC(=O)NCCc1ccccc1 (stereo in doubt)
Prompt: Ranking field: ED50; order: falling. Use the labels to give the requested order.
Completion: R, P, Q

// data source = ChEMBL document CHEMBL1124407
